This listing pairs molecules with measured melting point.
Answer in °C, number only, no unit symbol.

Please fill in: melting point reported for CCOP(=S)(Oc1ccc([N+](=O)[O-])cc1)c1ccccc1 (stereo not given) = 36

Please fill in: melting point reported for CC12CCC(=O)CC1CCC1C2CCC2(C)C(O)(C(=O)CO)CCC12O (stereo not given) = 218

Please fill in: melting point reported for CC(Cl)C(C)(C)C (stereo not given) = -1

Shift focus to the following entry.
Please fill in: melting point reported for Cc1ccc([N+](=O)[O-])cc1I = 61

----------
This listing pairs compounds with measured melting point.

Please fill in: melting point reported for COc1ccccc1NC(=S)c1cc(C(C)(C)C)c(O)c(C(C)(C)C)c1 = 185 to 186 °C

Please fill in: melting point reported for COc1ccc(C(=O)CCl)cc1 = 98 to 100 °C

Please fill in: melting point reported for O=C(O)C1CC(=O)N(CCc2ccc(Cl)cc2)C1 (configuration not stated) = 148 to 150 °C

Please fill in: melting point reported for Cn1cc(I)cn1 = 61 to 67 °C

Please fill in: melting point reported for CC(C)(Oc1ccc(C(C)(C)C)cc1)C(=O)O = 97 to 98 °C

Please fill in: melting point reported for Cc1nc(-c2ccccc2)sc1C(=O)O = 214 to 215 °C

Shift focus to the following entry.
Please fill in: melting point reported for CC(=O)C1CCC2C3CCC4CC(O)CCC4(C)C3CCC12C (configuration not stated) = 194 °C

----------
This listing pairs compounds with measured melting point.

Please fill in: melting point reported for NC(CP(=O)(O)O)C(=O)O (configuration not stated) = 227 to 229 °C

Please fill in: melting point reported for O=C(Oc1c(F)c(F)c(F)c(F)c1F)c1ccc(-c2ccccc2)nc1 = 113 to 115 °C

Please fill in: melting point reported for OC(c1c(F)c(F)c(F)c(F)c1F)c1c(F)c(F)c(F)c(F)c1F = 76 to 80 °C

Please fill in: melting point reported for COc1ccc(-c2ccccc2)cc1N = 81 to 84 °C

Please fill in: melting point reported for CCOC(=O)Oc1c(OC)cc(C(=O)O)cc1OC = 180 to 185 °C

Please fill in: melting point reported for CC1(C)N=C(N)C(C)(C)N1O = 225 to 228 °C

More entries:
Please fill in: melting point reported for COc1ccc(OCC(N)=S)cc1 = 113 to 114 °C

Please fill in: melting point reported for CC1NC(=O)C(C)NC1=O (configuration not stated) = 274 to 278 °C

Please fill in: melting point reported for COc1cc(C(=O)O)c(OC)c([N+](=O)[O-])c1 = 180 to 184 °C

Please fill in: melting point reported for CC(=O)Nc1cc(N=Nc2ccccc2)c(C)c(NC(C)=O)c1 = 255 °C

Please fill in: melting point reported for O=C(O)c1cc(Br)ccc1Cl = 160 °C

Please fill in: melting point reported for Cn1nc(-c2ccccc2)cc1N = 132 to 135 °C

Please fill in: melting point reported for C1=CC2c3ccccc3C1C21CC1 = 43 °C

Please fill in: melting point reported for BrCCOc1cccc2c1OCCO2 = 85 to 86 °C

----------
This listing pairs compounds with measured melting point.

Solved cases below.
Please fill in: melting point reported for Cc1c(C)c(C)c2c(c1C)CC2=O = 160 to 161 °C

Please fill in: melting point reported for COC(=O)C1Cc2c([nH]c3ccccc23)C(C)(C)N1 (stereo unspecified) = 202 to 204 °C

Please fill in: melting point reported for COC(=O)c1c(C)n[nH]c1-c1cc(C)on1 = 168 to 170 °C

Please fill in: melting point reported for O=[N+]([O-])c1cccnc1NC1CC1 = 61 to 63 °C

Please fill in: melting point reported for CSc1sc(C#N)c2c1C(=O)CC(C)(C)C2 = 169 to 171 °C

Shift focus to the following entry.
Please fill in: melting point reported for O=C(Cl)c1nccs1 = 54 to 58 °C

----------
This listing pairs compounds with measured melting point.

Solved cases below.
Please fill in: melting point reported for c1ccc(-c2cn3c(n2)SCC3)cc1 = 147 to 148 °C

Please fill in: melting point reported for N#Cc1cc(Br)ccc1N = 93 to 98 °C

More entries:
Please fill in: melting point reported for O=[N+]([O-])c1ccc(-c2nc(-c3ccccc3)c(-c3ccccc3)[nH]2)cc1 = 243 to 246 °C

Please fill in: melting point reported for OC1CCSCC1 = 50 to 51 °C

Please fill in: melting point reported for Oc1ccccc1C(O)c1ccccc1 (stereo not given) = 88 °C

Please fill in: melting point reported for OC(C#CC#CC(O)(c1ccccc1)c1ccccc1Cl)(c1ccccc1)c1ccccc1Cl (single isomer, unassigned; (+)) = 130 to 133 °C

Please fill in: melting point reported for CCOC(=O)C1C(C)=NN=C1N (stereo not given) = 54 to 56 °C

Please fill in: melting point reported for Cc1cc(C(N)=S)no1 = 169 to 172 °C

Please fill in: melting point reported for O=C(O)[C@H]1COCN1C(=O)OCc1ccccc1 = 70 to 74 °C

Please fill in: melting point reported for CCOP(=O)(OCC)Oc1c2cc(C(C)(C)C)cc1Cc1cc(C(C)(C)C)cc(c1O)Cc1cc(C(C)(C)C)cc(c1OP(=O)(OCC)OCC)Cc1cc(C(C)(C)C)cc(c1O)C2 = 203 to 205 °C

----------
Quantity Kind: melting point

Please fill in: melting point reported for O=C(O)c1ccc(-n2cccn2)cc1 = 269 to 270 °C

Please fill in: melting point reported for ON=CNc1ccc(Cl)nn1 = 207 to 211 °C

Please fill in: melting point reported for O=Cc1c(Cl)ccc(Cl)c1Cl = 86 to 89 °C

Please fill in: melting point reported for CC(C)(C)OC(=O)N1C2CCC1CC(=O)C2 = 58 to 59 °C

Please fill in: melting point reported for COC1(C)OC(CNc2ccc(S(C)(=O)=O)cc2)C(CNc2ccc(S(C)(=O)=O)cc2)OC1(C)OC (stereo not drawn) = 194 to 195 °C

Please fill in: melting point reported for COc1cccc(OCc2ccccc2Cl)c1C#N = 152 to 154 °C

Please fill in: melting point reported for COc1ccc(C=CC(=O)c2ccc(F)cc2)c(OC)c1 = 117 to 122 °C

Please fill in: melting point reported for O=C(O)c1n[nH]c2ccc(Br)cc12 = 290 to 292 °C

----------
This listing pairs compounds with measured melting point.

Please fill in: melting point reported for CSc1nc2[nH]c(=S)n(-c3ccccc3)c(=O)c2n1C = 268 to 270 °C

Please fill in: melting point reported for CC(C)(C)OC(=O)N1Cc2[nH]c3ccccc3c2C[C@H]1C(=O)O = 286 to 291 °C

Please fill in: melting point reported for Cc1noc(C)c1C(=O)O = 141 to 142 °C

Please fill in: melting point reported for CSc1nc2cc(N=Cc3ccc(F)cc3)ccc2[nH]1 = 174 to 175 °C

Please fill in: melting point reported for O=C(O)c1cc(-c2ccc(-c3cc(C(=O)O)c4ccccc4n3)cc2)nc2ccccc12 = > 315 °C

More entries:
Please fill in: melting point reported for Cc1ccc(P(c2ccccc2)c2ccccc2)cc1 = 66 to 68 °C

Please fill in: melting point reported for CCNc1cc2oc(=O)cc(C)c2cc1C = 168 to 170 °C

Please fill in: melting point reported for ON=Cc1ccc(Cl)cc1 = 100 to 102 °C

Please fill in: melting point reported for O=C(O)c1cnc2ccccn12 = 196 to 197 °C

Please fill in: melting point reported for Cn1ccc(-c2ccc(C(=O)O)cc2)n1 = 240 to 242 °C

Please fill in: melting point reported for Cn1nc(-c2ccc(S(=O)(=O)Cl)s2)cc1C(F)(F)F = 83 to 86 °C

Please fill in: melting point reported for COc1ccc(C2c3cc(OC)c(OC)cc3CCN2C(C)=O)cc1OC (configuration not stated) = 164 to 165 °C

----------
Quantity Kind: melting point

Solved cases below.
Please fill in: melting point reported for CC1(C)C(O)C(C)(C)C1O (centres undefined) = 126 to 134 °C

Please fill in: melting point reported for O=C(C=Cc1ccc(-c2ccc(Br)cc2)o1)c1ccco1 = 164 to 165 °C

Please fill in: melting point reported for Cn1nc(C(=O)O)c2ccccc21 = 213 to 221 °C

More entries:
Please fill in: melting point reported for Nc1cnccc1C(F)(F)F = 55 to 56 °C

----------
This listing pairs compounds with measured melting point.

Please fill in: melting point reported for O=C(O)c1ccc2c(c1)OCCCO2 = 143 to 146 °C

Please fill in: melting point reported for S=C=Nc1ccc(N2CCOCC2)nc1 = 121 to 122 °C

Please fill in: melting point reported for Cc1cc(Br)c(O)c2c1CCC2 = 60 to 62 °C

Please fill in: melting point reported for CC12CCC(=O)CC1CCC13OC14CCC(=O)C4(C)CCC23 (centres undefined) = 171 to 173 °C

Please fill in: melting point reported for CSC(SC)=C1CCCC(=C(SC)SC)C1=C(C#N)C#N = 155 to 156 °C

Please fill in: melting point reported for O=C(O)c1cc(Cl)nc(Cl)c1 = 210 to 211 °C

More entries:
Please fill in: melting point reported for O=C(C=Cc1ccc(-c2ccccc2)o1)c1ccco1 = 99 to 101 °C

Please fill in: melting point reported for O=C(CBr)c1ccc2c(c1)OCO2 = 91 to 93 °C

Please fill in: melting point reported for OC(CBr)C(O)CBr (racemic) = 82 to 84 °C

Each recorded value in this set is attributed to a melting point compilation (Tetko et al.).
